So I've got a bunch of sequences here, and I need their binding signal values.
Molecular target: SIX1-Q177R homeodomain (human, UniProt Q15475 108-198, Q177R)
Sequence: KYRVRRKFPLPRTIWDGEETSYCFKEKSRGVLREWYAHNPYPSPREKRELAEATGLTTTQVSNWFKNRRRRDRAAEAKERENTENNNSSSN
Test: universal protein binding microarray; Universal all-10-mer PBM (8x60K, AMADID 030236), 300 nM GST-tagged protein, Alexa Fluor 488 anti-GST; buffer, salt, pH and temperature not stated (as in Berger); high values mean tight binding
Conditions: protein: ivt; tags: N-terminal GST; dsDNA, one strand shown
The full ranking holds about 33,000 sequences; the median of “e-score” is about -0.05, and the highest 2% start at about 0.38. The list comes from a sample in which the highest values are over-represented; it also holds close analogues and randomly drawn sequences.
Use E-score as the unit, but write only the number.

Ask: Which binding signal value is on record for ATGTACAC ?
Result: 0.435

Ask: Now this one: CACGGTGG
Result: 0.26

Ask: What about CTGATACA ?
Result: 0.24

Ask: AGGTCGTG ?
Result: 0.264

Ask: Then what about the sequence GGGGACAC ?
Result: 0.41

Ask: Now this one: GAGGGGAC
Result: 0.2

Ask: Do the same for GGGCGGTA please
Result: 0.18

Ask: Also need AACACCAC , thanks.
Result: 0.483

Ask: Can you check CCGGGGAA next?
Result: 0.18

Ask: One more sequence: GTGTACAC
Result: 0.474

Ask: Same again, this time with CGGGATCC
Result: 0.209

Ask: Repeat for the following sequence: ACCAGAGT
Result: 0.16

Ask: Continue with GTCCGACA
Result: 0.217

Ask: Same thing, different sequence: AACACGAA
Result: 0.305

Ask: Would you kindly repeat that for AGCACGGG ?
Result: 0.155

Ask: Then GTACACAC ?
Result: 0.355

Ask: Record: ACCGGACA
Result: 0.245

Ask: Also need GAGTGTCA , thanks.
Result: 0.45

Ask: Would you mind doing GGTCCGGA as well?
Result: 0.161

Ask: Now try AACGTGTC .
Result: 0.348

Ask: Also need CCCCGAAC , thanks.
Result: 0.181

Ask: Similarly, TACACGAA ?
Result: 0.377

Ask: Check GTGTACAA too.
Result: 0.429

Ask: Same again, this time with CACGTGTA
Result: 0.4

Ask: Quick one: GGATCCCA
Result: 0.235

Ask: And TAGTGTCA ?
Result: 0.454

Ask: One more sequence: ATTCGGGG
Result: 0.176

Ask: Moving on to CACCCTTA
Result: 0.263

Ask: Entry AGGGGTAT please
Result: 0.3

Ask: // repeat for GGCGGATA and report
Result: 0.22

Ask: How about this sequence: CGCCCGAC
Result: 0.184

Ask: How about this sequence: ACCACGTG
Result: 0.194

Ask: Try the sequence CACGTGCC
Result: 0.225

Ask: What do we get for CTATAACA ?
Result: 0.228

Ask: Next up: GGGGGTAC
Result: 0.331

Ask: For GGATAACA then?
Result: 0.204

Ask: Next record, please: GCGGTGTA
Result: 0.485

Ask: Now consider ACCACACG .
Result: 0.297

Ask: Please answer likewise for AAGTGTCT
Result: 0.346

Ask: Next record, please: AGGTACAC
Result: 0.452

Ask: And what about the sequence GGCGGGTA ?
Result: 0.214

Ask: Similarly, GGGTGCAC ?
Result: 0.28

Ask: Continue with CCCACACC
Result: 0.39

Ask: Would you mind doing CCCCAAGC as well?
Result: 0.228

Ask: Cool, now TAGAGTCA
Result: 0.196

Ask: How about this sequence: GGGTGTAC
Result: 0.483

Ask: Now consider AAGTGGTG .
Result: 0.337

Ask: Record: GGGTACAC
Result: 0.443

Ask: Now the same for ACACAATG
Result: 0.164

Ask: GCACTACA ?
Result: 0.171

Ask: Queued: ACCCGTGC
Result: 0.162

Ask: // repeat for GGGTACAA and report
Result: 0.17

Ask: Param item: AGCACCAT
Result: 0.16

Ask: Item: TAGTGACA
Result: 0.211

Ask: Note, next up: CCCCCCGA
Result: 0.314

Ask: Try the sequence CACGTGTC
Result: 0.398

Ask: One more sequence: CACCGGCC
Result: 0.251

Ask: Now try GTGCTCCA .
Result: 0.183

Ask: Consider next the sequence GACTCCCC in the same way.
Result: 0.161

Ask: Quick one: ATAGCACG
Result: 0.157

Ask: Could you do the same for CTGTACCC , please?
Result: 0.183

Ask: Continue with AACACCAA
Result: 0.467

Ask: Query CCGGTGCA next
Result: 0.203

Ask: Lookup CCAAGCCC
Result: 0.155

Ask: Would you mind doing CGACACTA as well?
Result: 0.41

Ask: Another sequence to look at: ATACCCAC
Result: 0.196

Ask: Repeat with TACACCAA
Result: 0.475

Ask: Same again, this time with CGGTGTAA
Result: 0.481

Ask: // next record GATCCCGC
Result: 0.185

Ask: Ok, now CCCACACG
Result: 0.288

Ask: Try the sequence ACCCAAGT
Result: 0.157

Ask: Input GTGTGTCA
Result: 0.369

Ask: Then what about the sequence AACACGGT ?
Result: 0.383

Ask: Also check AATAGACA
Result: 0.187

Ask: How about ACTCCCCG ?
Result: 0.191

Ask: Okay, and CTGCACAC ?
Result: 0.247

Ask: Next sequence up: AAGTGTCA
Result: 0.418

Ask: Next sequence: CACGTGCA
Result: 0.218

Ask: # repeat for CACCAGCA
Result: 0.341

Ask: Next sequence: GAATAACA
Result: 0.151

Ask: Also, CCCCCTTC please.
Result: 0.21

Ask: Now give it for GGGTACCC too.
Result: 0.234

Ask: Likewise for AACAAGTG ?
Result: 0.172

Ask: # repeat for GAGTATCC
Result: 0.199

Ask: // next record AACACGAC
Result: 0.373

Ask: Queued: AACCCCGA
Result: 0.232

Ask: Please give the result for GGACACTA too.
Result: 0.358

Ask: Quick one: CTGTACAC
Result: 0.412

Ask: And CTGTGTAA ?
Result: 0.153

Ask: Moving on to the next sequence: ACCCATCG
Result: 0.179

Ask: Likewise for AGGTACTC ?
Result: 0.166

Source listed as paper PMC10668032.
